# target.entity: human NKp30 (human) (UniProt O14931)
# Sequence (O14931 19-135 limits assumed): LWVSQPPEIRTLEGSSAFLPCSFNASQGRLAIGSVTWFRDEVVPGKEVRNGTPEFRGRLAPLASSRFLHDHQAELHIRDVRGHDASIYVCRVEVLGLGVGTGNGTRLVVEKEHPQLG
# test.name: BLI, ratio to ΔB7-H6_wt

binder	x-fold KD improvement, fold
ΔB7-H6_S3#19-SEED-PGLALA (bispecific antibody, part only; not given: SEED Fc chains and hu225 Fab, part only) chain, part: DLKVEMMAGGTQITPLNDNVTIFCNIFYSQPLNITQMGITWFWKSLTFDKEVKVFEFWGDHQEAFRPGAIVSPWRLKSGDASLRLPGIQLEEAGEYRCEVVVTPYKAQGTVQLEVVASPAS	2.8
ΔB7-H6_S3#1-SEED-PGLALA (bispecific antibody, part only; not given: SEED Fc chains and hu225 EGFR Fab, part only) chain, part: DLKVEMMAGGTQITPLNDNVTIFCNIFYSQPLNITTMGITWFWKSLTFDKEVKVFEFWGDHQEAFRPGAIVSPWRLKSGDASLRLPGIQLEEAGEYRCEVVVTPYKAQGTVQLEVVASPAS	10.5
